system: S. aureus (ATCC 29213); type: cell-based; details: Table 6; ATCC 29213; checkerboard assay, 50:50 PBS/LB-broth, 200 µL
readout label: S. aureus MBC, antibiotic alone (µg/mL)
Your answer should be a plain number; it is taken to be in µg/mL.

| molecule | endpoint result |
| --- | --- |
| O=C(O)c1cn(C2CC2)c2cc(N3CCNCC3)c(F)cc2c1=O [Ciprofloxacin] | 0.25 |
| CN(C)[C@@H]1C(O)=C(C(N)=O)C(=O)[C@@]2(O)C(O)=C3C(=O)c4c(O)cccc4[C@@](C)(O)[C@H]3C[C@@H]12 [Tetracycline] | 8 |
| CN[C@H](CC(C)C)C(=O)N[C@H]1C(=O)N[C@@H](CC(N)=O)C(=O)N[C@H]2C(=O)N[C@H]3C(=O)N[C@H](C(=O)N[C@H](C(=O)O)c4cc(O)cc(O)c4-c4cc3ccc4O)[C@H](O)c3ccc(c(Cl)c3)Oc3cc2cc(c3O[C@@H]2O[C@H](CO)[C@@H](O)[C@H](O)[C@H]2O[C@H]2C[C@](C)(N)[C@H](O)[C@H](C)O2)Oc2ccc(cc2Cl)[C@H]1O [Vancomycin] | 0.78 |

Now, please, on to the next molecule.
[ask] Answer with the recorded S. aureus MBC, antibiotic alone of CO[C@H]1/C=C/O[C@@]2(C)Oc3c(C)c(O)c4c(O)c(c(/C=N/N5CCN(C)CC5)c(O)c4c3C2=O)NC(=O)/C(C)=C\C=C\[C@H](C)[C@H](O)[C@@H](C)[C@@H](O)[C@@H](C)[C@H](OC(C)=O)[C@@H]1C [Rifampicin] only.
[reply] 0.062

# credit: paper PMC10011573
